// provenance: patent US10398751B2

assay_remarks: Pharmacokinetics of IR formulations in minipigs
Type: in vivo
run_conditions: minipig, plasma, sc, 0.4 mg/kg, pH 4, IR, SC, 0.4 mg/Kg; Lactic acid buffer pH 4; read-out: Minipigs absolute BA (F %)
value_type: bioavailability (%)

1) C[C@@H](O)[C@@H]1NC(=O)[C@H](CCCCN)NC(=O)[C@@H](Cc2c[nH]c3ccccc23)NC(=O)[C@H](Cc2c[nH]c3ccccc23)NC(=O)[C@H](Cc2ccccc2)NC(=O)CCCNC(=O)CCCN(CC(N)=O)C(=O)[C@H](Cc2ccccc2)NC1=O [Veldoreotide]	69

* * *

assay_remarks: Solubility of COR005 acetate in aqueous media with additives at 25° C.
Assay type: physicochemical
run_conditions: water; additives none; read-out: Solubility of COR005 Acetate (mg/ml) at 25° C.
value_type: solubility

1) C[C@@H](O)[C@@H]1NC(=O)[C@H](CCCCN)NC(=O)[C@@H](Cc2c[nH]c3ccccc23)NC(=O)[C@H](Cc2c[nH]c3ccccc23)NC(=O)[C@H](Cc2ccccc2)NC(=O)CCCNC(=O)CCCN(CC(N)=O)C(=O)[C@H](Cc2ccccc2)NC1=O [Veldoreotide Acetate]	≥ 300 mg/mL

* * *

assay_remarks: Solubility of COR005 acetate in aqueous media with additives at 25° C.
Assay type: physicochemical
run_conditions: isotonic PBS pH 7.4, pH 7.4, PBS pH 7.4 Isotonic; HPB:PEP 1:4; read-out: Solubility of COR005 Acetate (mg/ml) at 25° C.
From the text: Table 3 summarizes the solubility values of COR005 acetate in various aqueous media, the effects of additives such as DEX and HPB on the peptide solubility in saline and physiological conditions, as well as the PK profile of IR and MS formulations prepared with these additives in comparison to COR005 without additives as control. […]
value_type: solubility (mg/mL)

1. C[C@@H](O)[C@@H]1NC(=O)[C@H](CCCCN)NC(=O)[C@@H](Cc2c[nH]c3ccccc23)NC(=O)[C@H](Cc2c[nH]c3ccccc23)NC(=O)[C@H](Cc2ccccc2)NC(=O)CCCNC(=O)CCCN(CC(N)=O)C(=O)[C@H](Cc2ccccc2)NC1=O [Veldoreotide Acetate]	2.5

* * *

assay_remarks: Solubility and surface activity in PBS under physiological conditions (37° C.)
Assay type: physicochemical
run_conditions: PBS, pH 7.4, PBS pH 7.4, 37° C., COR005 10 mg/ml, HPB:PEP 1:2
value_type: solubility (µg/mL)

1. C[C@@H](O)[C@@H]1NC(=O)[C@H](CCCCN)NC(=O)[C@@H](Cc2c[nH]c3ccccc23)NC(=O)[C@H](Cc2c[nH]c3ccccc23)NC(=O)[C@H](Cc2ccccc2)NC(=O)CCCNC(=O)CCCN(CC(N)=O)C(=O)[C@H](Cc2ccccc2)NC1=O [Veldoreotide]	5000

* * *

assay_remarks: Solubility screening of veldoreotide acetate (10 mg, incremental volumes of medium, USP definition)
Type: physicochemical
run_conditions: oleic acid, 10 ml Slightly soluble (0.001 g/ml; 1 mg/ml), 10 mg in Oleic acid
value_type: solubility

1. C[C@@H](O)[C@@H]1NC(=O)[C@H](CCCCN)NC(=O)[C@@H](Cc2c[nH]c3ccccc23)NC(=O)[C@H](Cc2c[nH]c3ccccc23)NC(=O)[C@H](Cc2ccccc2)NC(=O)CCCNC(=O)CCCN(CC(N)=O)C(=O)[C@H](Cc2ccccc2)NC1=O [Veldoreotide Acetate]	< 1000 µg/mL

* * *

assay_remarks: Solubility of COR005 acetate in aqueous media with additives at 25° C.
Assay type: physicochemical
run_conditions: isotonic PBS with dextrose, pH 7.4, PBS pH 7.4 Isotonic; DEX:PEP 1:8; read-out: Solubility of COR005 Acetate (mg/ml) at 25° C.
value_type: solubility (mg/mL)

1) C[C@@H](O)[C@@H]1NC(=O)[C@H](CCCCN)NC(=O)[C@@H](Cc2c[nH]c3ccccc23)NC(=O)[C@H](Cc2c[nH]c3ccccc23)NC(=O)[C@H](Cc2ccccc2)NC(=O)CCCNC(=O)CCCN(CC(N)=O)C(=O)[C@H](Cc2ccccc2)NC1=O [Veldoreotide Acetate]	2

* * *

assay_remarks: Solubility screening of veldoreotide acetate (10 mg, incremental volumes of medium, USP definition)
Format: physicochemical
run_conditions: refined vegetable oils (olive, cotton, coconut, canola), 10 ml Slightly soluble (0.001 g/ml; 1 mg/ml), 10 mg in Refined vegetable oils; Olive, Cotton, Coconut, Canola
Text: The solubility of veldoreotide acetate in aqueous media was screened by the following method. […] Following the results of the screening studies, several media were selected for verification studies based on quantitative assessment of the peptide concentration by HPLC (maximal solubility). […]
value_type: solubility

1. C[C@@H](O)[C@@H]1NC(=O)[C@H](CCCCN)NC(=O)[C@@H](Cc2c[nH]c3ccccc23)NC(=O)[C@H](Cc2c[nH]c3ccccc23)NC(=O)[C@H](Cc2ccccc2)NC(=O)CCCNC(=O)CCCN(CC(N)=O)C(=O)[C@H](Cc2ccccc2)NC1=O [Veldoreotide Acetate]	< 1000 µg/mL

* * *

assay_remarks: Solubility screening of veldoreotide acetate (10 mg, incremental volumes of medium, USP definition)
Format: physicochemical
run_conditions: 0.9N HCl, 10 mg in 0.9N HCL; read-out: 0.01 ml Very soluble (1 g/ml)
value_type: solubility

1. C[C@@H](O)[C@@H]1NC(=O)[C@H](CCCCN)NC(=O)[C@@H](Cc2c[nH]c3ccccc23)NC(=O)[C@H](Cc2c[nH]c3ccccc23)NC(=O)[C@H](Cc2ccccc2)NC(=O)CCCNC(=O)CCCN(CC(N)=O)C(=O)[C@H](Cc2ccccc2)NC1=O [Veldoreotide Acetate]	< 1000 mg/mL

* * *

assay_remarks: Solubility screening of veldoreotide acetate (10 mg, incremental volumes of medium, USP definition)
Format: physicochemical
run_conditions: 0.1N HCl, 10 mg in 0.1N HCL; read-out: 0.01 ml Very soluble (1 g/ml)
value_type: solubility

1) C[C@@H](O)[C@@H]1NC(=O)[C@H](CCCCN)NC(=O)[C@@H](Cc2c[nH]c3ccccc23)NC(=O)[C@H](Cc2c[nH]c3ccccc23)NC(=O)[C@H](Cc2ccccc2)NC(=O)CCCNC(=O)CCCN(CC(N)=O)C(=O)[C@H](Cc2ccccc2)NC1=O [Veldoreotide Acetate]	< 1000 mg/mL

* * *

assay_remarks: Solubility screening of veldoreotide acetate (10 mg, incremental volumes of medium, USP definition)
Assay type: physicochemical
run_conditions: Lactic acid 37 mM, Mannitol 250 mM, pH 4.3, 10 mg in Lactic acid 37 mM, Mannitol 250 mM (pH 4.3); read-out: 0.01 ml Very soluble (1 g/ml)
value_type: solubility

1) C[C@@H](O)[C@@H]1NC(=O)[C@H](CCCCN)NC(=O)[C@@H](Cc2c[nH]c3ccccc23)NC(=O)[C@H](Cc2c[nH]c3ccccc23)NC(=O)[C@H](Cc2ccccc2)NC(=O)CCCNC(=O)CCCN(CC(N)=O)C(=O)[C@H](Cc2ccccc2)NC1=O [Veldoreotide Acetate]	< 1000 mg/mL

* * *

assay_remarks: Solubility screening of veldoreotide acetate (10 mg, incremental volumes of medium, USP definition)
Format: physicochemical
run_conditions: Acetone (USP), 10 mg in Acetone (USP); read-out: 0.01 ml Very soluble (1 g/ml)
Source text: The solubility of veldoreotide acetate in aqueous media was screened by the following method. […] Following the results of the screening studies, several media were selected for verification studies based on quantitative assessment of the peptide concentration by HPLC (maximal solubility). […]
value_type: solubility

1. C[C@@H](O)[C@@H]1NC(=O)[C@H](CCCCN)NC(=O)[C@@H](Cc2c[nH]c3ccccc23)NC(=O)[C@H](Cc2c[nH]c3ccccc23)NC(=O)[C@H](Cc2ccccc2)NC(=O)CCCNC(=O)CCCN(CC(N)=O)C(=O)[C@H](Cc2ccccc2)NC1=O [Veldoreotide Acetate]	< 1000 mg/mL

* * *

assay_remarks: in vivo
Design: species or system rats
run_conditions: Sprague-Dawley, rat, sc, pH 4, Rats BA (F %)
value_type: bioavailability (%)

1. C[C@@H](O)[C@@H]1NC(=O)[C@H](CCCCN)NC(=O)[C@@H](Cc2c[nH]c3ccccc23)NC(=O)[C@H](Cc2c[nH]c3ccccc23)NC(=O)[C@H](Cc2ccccc2)NC(=O)CCCNC(=O)CCCN(CC(N)=O)C(=O)[C@H](Cc2ccccc2)NC1=O [Veldoreotide Acetate]	70

* * *

assay_remarks: Pharmacokinetics of IR formulations in minipigs
Format: in vivo
run_conditions: minipig, plasma, sc, 0.4 mg/kg, IR, SC, 0.4 mg/Kg; DEX:PEP 5:1 saline; read-out: Minipigs absolute BA (F %)
value_type: bioavailability (%)

1. C[C@@H](O)[C@@H]1NC(=O)[C@H](CCCCN)NC(=O)[C@@H](Cc2c[nH]c3ccccc23)NC(=O)[C@H](Cc2c[nH]c3ccccc23)NC(=O)[C@H](Cc2ccccc2)NC(=O)CCCNC(=O)CCCN(CC(N)=O)C(=O)[C@H](Cc2ccccc2)NC1=O [Veldoreotide]	88.4
